The origin of these recorded values is the supplement of paper PMC10201428.

system: VchCAST RNA-guided transposition machinery (E. coli BL21(DE3) host, lacZ target); test: relative integration efficiency (T-LR orientation) vs wild-type transposon end (log2 (normalized fold change)); transposon end mutated: right end (5 bp flank + 75 bp right end); higher = more efficient transposition
Measured relative integration efficiency (log2) values are reported for all entries that follow.
// response body must contain only the number

- residueSequence: "ACATTAGTTGATACAACCATAAAATGATAATTACACCCATAAATGGATAATTATCACACCCAATTTAACTATAACGCTCTGATCATAGTCAGACCAACATTGCTACGACCCGTATTCGCACCGACAC"
  relative integration efficiency (log2): -4.68
- residueSequence: "ACATTTGTTGATACAACCAATAAAAGATAATTACACCCATAAATTGATAATTGTGACACCGAATTTAACTATAACGCTCTGATCATAGTCAGACCAACATTGCTACGACCCGTATTCGCACCGACAC"
  relative integration efficiency (log2): 1.26
- residueSequence: "ACATTTGTTGATACAACCATAAAATGATAATTAATAATTATTTATAATCAGCACCCATAAATTGATAATTATCAACAAACGCCCGGTCGCGGTACTCTGATCATAGTCAGACCAACATTGCTACGAC"
  relative integration efficiency (log2): 0.752

Exam item: Look up relative integration efficiency (log2) for this sequence: ACATTTGTTGATCCAACCATAAAATGATAATTACACCCATAAATGGATAATTATCACACCCAATTTAACTATAACGCTCTGATCATAGTCAGACCAACATTGCTACGACCCGTATTCGCACCGACAC
Marked response: 1.15

Exam item: Look up relative integration efficiency (log2) for this sequence: ACATTTGTTGATACAACCAATAAAAGATTATTACCCCCATTAATTGATAATGATGACACCGAATTTAACTATAACGCTCTGATCATAGTCAGACCAACATTGCTACGACCCGTATTCGCACCGACAC
Marked response: -1.84

---

test system: VchCAST RNA-guided transposition machinery (E. coli BL21(DE3) host, lacZ target); assay: relative integration efficiency (T-LR orientation) vs wild-type transposon end (log2 (normalized fold change)); transposon end mutated: right end (5 bp flank + 75 bp right end); higher = more efficient transposition
valueKind: relative integration efficiency (log2)
// response body must contain only the number

- residueSequence: "ACATTTGTTGATACAACCATAAAATGATAATTACTCTGATCATCACCCATAAATTGATAATTATCACACCCATAAATTGATATTGCAGTCAGACCAACATTGCTACGACCCGTATTCGCACCGACAC"
  relative integration efficiency (log2): -2.15
- residueSequence: "ACATTTGTTGATACAACCATAAAATGATAATTACACCCATAACGGTCGCCGGCGACACAAACGCCCGGTCGCGGTAAGAGGATCATAGTCAGACCAACATTGCTACGACCCGTATTCGCACCGACAC"
  relative integration efficiency (log2): 0.674

Exam item: Look up relative integration efficiency (log2) for this sequence: ACATTTGTTGATACAACCATAAAATGATAATTACACCCATAAATTTCGCATTATCACACCCATAAATTGATATTGCCTCTGATCATAGTCAGACCAACATTGCTACGACCCGTATTCGCACCGACAC
Marked response: -1.39

Exam item: Look up relative integration efficiency (log2) for this sequence: ACATTTGTTGATACAACCATAAAATCATAATTACACCCATAAATTGATAATTATCCCACCCAATTTAACTATAACGCTCTGATCATAGTCAGACCAACATTGCTACGACCCGTATTCGCACCGACAC
Marked response: 1.64

Exam item: Look up relative integration efficiency (log2) for this sequence: ACATTTGTTGATACAACCATAAAATGATAATTACTCTGATCATAGTCAGACCAACATTGCTACGACCCGTATTCGCACCGACACAACGACTATATTTACACCCATAAATTGATAATTATCAGTGGGT
Marked response: 1.81

---

system: VchCAST RNA-guided transposition machinery (E. coli BL21(DE3) host, lacZ target); test: relative integration efficiency (T-LR orientation) vs wild-type transposon end (log2 (normalized fold change)); transposon end mutated: right end (5 bp flank + 75 bp right end); higher = more efficient transposition
valueKind: relative integration efficiency (log2)

- residueSequence: "ACATTTGTTGATACAACCATAAAATGATAATTACACCCATAAAAAGATAATTATCACACCCATAAATTGATATTGCCTCTGATCATAGTCAGACCAACATTGCTACGACCCGTATTCGCACCGACAC"
  valueKind: "relative integration efficiency (log2)"
  result: -1.08
- residueSequence: "ACATTTGTTGATATAATTATCATTTTATGGTTGTAATTATCATTTTATGGTTGTCATAATTATCATTTTATGGTTGCTCTGATCATAGTCAGACCAACATTGCTACGACCCGTATTCGCACCGACAC"
  valueKind: "relative integration efficiency (log2)"
  result: -6.39
- residueSequence: "ACATTTGTTGATACAACCATAAAATGATAATTACAACCATATATTGATATCTCTCACACCCATAAATTGATAATTACTCTGATCATAGTCAGACCAACATTGCTACGACCCGTATTCGCACCGACAC"
  valueKind: "relative integration efficiency (log2)"
  result: -0.0249
- residueSequence: "ACATTGGTGGATACAACCATAAAATGATAATTACACCCATAAATGGATCATTATCACACCCAATTTAACTATAACGCTCTGATCATAGTCAGACCAACATTGCTACGACCCGTATTCGCACCGACAC"
  valueKind: "relative integration efficiency (log2)"
  result: -6.75

Moving on to another sequence below.
Exam item: Look up relative integration efficiency (log2) for this sequence: ACATTTGTTGATACAACCATAAGTTGATATTTTCAACCATAAAGTGATATTTATCAGTGGGTATTTAACTATAACGCTCTGATCATAGTCAGACCAACATTGCTACGACCCGTATTCGCACCGACAC
Marked response: 2.69

---

Measured relative integration efficiency (log2) values are reported for all entries that follow.
system: VchCAST RNA-guided transposition machinery (E. coli BL21(DE3) host, lacZ target); assay: relative integration efficiency (T-RL orientation) vs wild-type transposon end (log2 (normalized fold change)); transposon end mutated: right end (5 bp flank + 75 bp right end); higher = more efficient transposition
// response body must contain only the number

- residueSequence: "ACATTTGTTGATACCACCATAAAATGGTAATTACACCCCTAAATTGATAATTATCACACCCAATTTAACTATAACGCTCTGATCATAGTCAGACCAACATTGCTACGACCCGTATTCGCACCGACAC"
  testedSystem: "VchCAST RNA-guided transposition machinery (E. coli BL21(DE3) host, lacZ target)"
  relative integration efficiency (log2): -3.42
- residueSequence: "ACATTTGTTGATACAACCATAAAATGCGCCGGCACAAACGCCCGGTCGCCGGCGACACAAACGCCCGGTCGCGGTAAGAGGATCATAGTCAGACCAACATTGCTACGACCCGTATTCGCACCGACAC"
  testedSystem: "VchCAST RNA-guided transposition machinery (E. coli BL21(DE3) host, lacZ target)"
  relative integration efficiency (log2): -3.75
- residueSequence: "ACATTTGTTGATACAACCATAAAATGATCCGGCACAAACGCCCGGTCGCCGGCGACACAAACGCCCGGTCGCGGTAAGAGGATCATAGTCAGACCAACATTGCTACGACCCGTATTCGCACCGACAC"
  testedSystem: "VchCAST RNA-guided transposition machinery (E. coli BL21(DE3) host, lacZ target)"
  relative integration efficiency (log2): -2.68
- residueSequence: "ACATTTGTTGATACACCCATAAATTGATAATTACAACCATATATTGATATCTCTCACAACCATATATTGATATCTCCTCTGATCATAGTCAGACCAACATTGCTACGACCCGTATTCGCACCGACAC"
  testedSystem: "VchCAST RNA-guided transposition machinery (E. coli BL21(DE3) host, lacZ target)"
  relative integration efficiency (log2): -0.949
- residueSequence: "ACATTTGTTGATACAACCATAAAATGATAATTACACCCATAAATTGATAATTATCACACCCATAAATTGATATTGCCTCTGATAACTTCGTATAATGTATCGTATACGAACGGTATCGCACCGACAC"
  testedSystem: "VchCAST RNA-guided transposition machinery (E. coli BL21(DE3) host, lacZ target)"
  relative integration efficiency (log2): -0.379

Exam item: Look up relative integration efficiency (log2) for this sequence: ACATTTGTTGATACACCCATAAATTGATAATTACAACCATAAAATGATAATTATCACAACCATAAAATGATAATTACTCTGATCATAGTCAGACCAACATTGCTACGACCCGTATTCGCACCGACAC
Marked response: -0.638

Exam item: Look up relative integration efficiency (log2) for this sequence: ACATTTGTTGATACAACCATAAAATGATAATTACACCCATAAATTGATAATTATCACACCCATAAATTGATATTGCCTCTGATCATACAACCATAAAATGATAATTAGTCAGACCAAGCACCGACAC
Marked response: 0.403

Exam item: Look up relative integration efficiency (log2) for this sequence: ACATTTGTTGATACAACCATAAAATGATAATTCACCCCTAAATTGATAATTATCACACCCACATTTAACTATAACGCTCTGATCATAGTCAGACCAACATTGCTACGACCCGTATTCGCACCGACAC
Marked response: -3.72

Exam item: Look up relative integration efficiency (log2) for this sequence: ACATTTGTTGATACAACCATATATTGATATCTCCACCCATAAATTGATAATTATCACAACCATAAGTTGATATTTTCTCTGATCATAGTCAGACCAACATTGCTACGACCCGTATTCGCACCGACAC
Marked response: -0.316

Exam item: Look up relative integration efficiency (log2) for this sequence: ACATTTGTTGATACAACCATAAAATGATAATTACACAACGAAATTGATAATTATCACACCCATAAATTGATATTGCCTCTGATCATAGTCAGACCAACATTGCTACGACCCGTATTCGCACCGACAC
Marked response: -3.5

Exam item: Look up relative integration efficiency (log2) for this sequence: ACATTTGTTGATCCAACCATAAAATGATAATTACACCCATAAATTCATAATTATCACACCCAATTTAACTATAACGCTCTGATCATAGTCAGACCAACATTGCTACGACCCGTATTCGCACCGACAC
Marked response: -2.07

Exam item: Look up relative integration efficiency (log2) for this sequence: ACATTTGTTGATACAACCATATATTGATATCTCCAACCATATATTGATATCTCTCACAACCATATATTGATATCTCCTCTGATCATAGTCAGACCAACATTGCTACGACCCGTATTCGCACCGACAC
Marked response: -0.859
